# target entity: TYK2-JH2 (aa 575-869, in-house) protein (Homo sapiens)
# Construct: TYK2-JH2 (aa 575-869, in-house) protein; made in house
# Sequence (P29597 575-869): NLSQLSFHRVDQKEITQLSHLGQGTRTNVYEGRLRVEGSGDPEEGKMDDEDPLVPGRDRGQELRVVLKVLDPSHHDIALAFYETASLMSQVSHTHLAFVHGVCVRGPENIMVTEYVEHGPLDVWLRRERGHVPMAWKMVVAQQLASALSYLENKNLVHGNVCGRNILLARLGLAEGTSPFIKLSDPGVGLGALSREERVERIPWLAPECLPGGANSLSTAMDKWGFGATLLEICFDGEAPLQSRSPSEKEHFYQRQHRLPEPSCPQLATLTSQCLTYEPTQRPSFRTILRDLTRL
# assay method text: TYK2-JH2 biochemical assay (HTRF probe displacement)
# Assay type: binding
# test parameters: Biochemical assay; read-out: TYK2-JH2 IC50
quantity name: IC50 (nM)
Please respond with the number in nM and leave the unit unwritten.

• CC(=O)Nc1cc(Nc2cc(N3CC4CC4C3)cc(S(C)(=O)=O)n2)c(-c2ccc3c(n2)OCC(C)(C)O3)cn1 (stereo not shown) = 0.015
• COc1ccc(S(C)(=O)=O)nc1Nc1cc(NC(C)=O)ncc1-c1cnn(C)c1 = 0.063

Prompt: # return recorded IC50 for input CC(=O)Nc1cc(Nc2cc(N3CCOC[C@@H]3C)cc(S(C)(=O)=O)n2)c(-c2ccc3c(n2)OCC(C)(C)O3)cn1
Completion: 0.02

Prompt: Return value of IC50 for input CC(=O)Nc1cc(Nc2cc(F)cc(S(C)(=O)=O)c2)c(-c2ccc(C(C)(C)O)cn2)cn1 , no commentary.
Completion: 0.028

Prompt: Consider the compound CC(=O)Nc1cc(Nc2cc(OC3CCC3)cc(S(C)(=O)=O)n2)c(-c2ccc(C(C)(C)O)cn2)cn1 and give its recorded IC50.
Completion: 0.023

---

# Test system: pSTAT5/GM-CSF
# assay method text: pSTAT5/GM-CSF cellular assay (JAK2 selectivity)
# Assay type: cell-based
Below, each entry is listed with its recorded IC50.

- COCc1ccc(-c2cnc(NC(C)=O)cc2Nc2cc(C)cc(S(C)(=O)=O)n2)nc1 [Example E2]: 5.81 µM
- COc1cc(Nc2cc(NC(C)=O)ncc2-c2ccn(C)n2)nc(S(C)(=O)=O)c1: > 10 µM
- COC(C)COc1cc(Nc2cc(NC(C)=O)ncc2-c2ccc(C(C)(C)O)cn2)nc(S(C)(=O)=O)c1 (centres unmarked): > 10 µM
- CC(=O)Nc1cc(Nc2cc(OCC(C)C)cc(S(C)(=O)=O)n2)c(-c2ccn(C)n2)cn1: > 10 µM
- COc1cc(Nc2cc(NC(C)=O)ncc2-c2ccc(N3C[C@@H](C)O[C@@H](C)C3)cn2)nc(S(C)(=O)=O)c1: > 10 µM
- CC(=O)Nc1cc(Nc2cc(C3CCOCC3)cc(S(C)(=O)=O)n2)c(-c2ccc(N3C[C@@H](C)O[C@@H](C)C3)cn2)cn1: > 10 µM

Prompt: For CCOc1cc(Nc2cc(NC(C)=O)ncc2-c2ccc(C(C)(C)O)cn2)nc(S(C)(=O)=O)c1 , write its IC50.
Completion: > 10 µM

Prompt: Please give the documented IC50 of CC(=O)Nc1cc(Nc2cc(OC(F)(F)F)cc(S(C)(=O)=O)c2)c(-c2ccn(C)n2)cn1
Completion: > 10 µM

Prompt: State, in one line, measured IC50 of CCS(=O)(=O)c1cc(OC(C)C)cc(Nc2cc(NC(C)=O)ncc2-c2ccc(C(C)(C)O)cn2)n1
Completion: > 10 µM

Prompt: Indicate its recorded IC50; the molecule in question is CC(=O)Nc1cc(Nc2cc(N3CCOC[C@@H]3C)cc(S(C)(=O)=O)n2)c(-c2ccc(N3C[C@@H](C)O[C@@H](C)C3)cn2)cn1
Completion: 2.6 µM

Prompt: Return reported IC50. Input molecule: CC(=O)Nc1cc(Nc2cc(OCC(C)O)cc(S(C)(=O)=O)n2)c(-c2ccc(C(C)(C)O)cn2)cn1 (centres unmarked)
Completion: > 10 µM

Prompt: Please indicate IC50 recorded for COc1cccc(Nc2cc(NC(C)=O)ncc2-c2ccccn2)c1
Completion: > 10 µM

Prompt: Output IC50 of [2H]C([2H])([2H])Oc1cc(Nc2cc(NC(C)=O)ncc2-c2ccc(F)cn2)nc(S(C)(=O)=O)c1
Completion: > 10 µM

Prompt: Give the reported value of IC50 for this record: CC(=O)Nc1cc(Nc2cc(C3CCOCC3)cc(S(C)(=O)=O)n2)c(-c2ccc3c(n2)OCC(C)(C)O3)cn1
Completion: 8.1 µM
